Ref: PubChem BioAssay AID2320

assay: A qHTS for Small Molecule Inhibitors of Shiga Toxin (Confirmatory); conditions: Cell-based Shiga toxin protection reporter assay; series mostly up to 38.3 µM; note: nearly all actives have a fitted effect of over 75% in size
Records with an inconclusive call do not appear. Active and inactive are the calls of the source. Calls come from the whole dose curve.
Outcome field: choose from Yes for active, No for inactive

>  <molecule>
C=CCn1c(=S)[nH]c2cc(-c3ccccc3)sc2c1=O

>  <assigned.class>
Yes

$$$$
>  <molecule>
O=C(O)C1CCCCC1C(=O)Nc1ccc(-c2ccccc2)cc1 (stereo unspecified)

>  <assigned.class>
Yes

$$$$
>  <molecule>
CCOC(=O)C1CCCN(c2nc3ccccc3nc2C(C#N)C(=O)OCC)C1 (stereo unspecified)

>  <assigned.class>
No

$$$$
>  <molecule>
O=C(Cc1c[nH]c2ccccc12)NCc1ccc(Cl)cc1

>  <assigned.class>
No

$$$$
>  <molecule>
O=C(NCC1CCCO1)Nc1ccc2c(c1)OCO2 (stereo unspecified)

>  <assigned.class>
Yes

$$$$

Moving on to the next molecule.
Q. Dear colleague, could you share the recorded outcome for CC1CCC/C=C/C2CC(O)CC2C(O)/C=C/C(=O)O1 (stereo unspecified) when you have a moment?
A. Yes
